Assay: Phase 1 pharmacokinetic study of a single oral dose of 20 mg E4 monohydrate in female subjects with normal hepatic function and mild, moderate or severe hepatic impairment (plasma, LC-MS/MS, non-compartmental analysis)
Type: in vivo, human
Settings: female, human, plasma, po, 20 mg, Normal hepatic function; single oral dose 20 mg E4 monohydrate; plasma; read-out: AUC0-24 h, Median
VALUE_KIND: AUC(0-t) (ng·h/mL)

C[C@]12CC[C@@H]3c4ccc(O)cc4CC[C@H]3[C@@H]1[C@@H](O)[C@@H](O)[C@@H]2O [E4] : 63.8

====

Experiment: Phase 1 pharmacokinetic study of a single oral dose of 20 mg E4 monohydrate in female subjects with normal hepatic function and mild, moderate or severe hepatic impairment (plasma, LC-MS/MS, non-compartmental analysis)
Type: in vivo, human
Settings: female, human, plasma, po, 20 mg, Severe hepatic impairment; single oral dose 20 mg E4 monohydrate; plasma; read-out: AUCinf, GM
VALUE_KIND: AUC(0-inf) (ng·h/mL)

C[C@]12CC[C@@H]3c4ccc(O)cc4CC[C@H]3[C@@H]1[C@@H](O)[C@@H](O)[C@@H]2O [E4] : 198
